target: PLpro of SARS-CoV-2 (Severe acute respiratory syndrome coronavirus 2, UniProt P0DTD1); assay: Enzyme activity test in vitro: inhibition of PLpro at fixed concentration 50 μM (RLRGG-AMC substrate); format: biochemical; conditions: read-out: Inhibition rate at 50 μM (%)
parameter-measured: inhibition at 50 µM (%)
The reply should be a number in %, with the unit left off.

These recorded examples may help you get a feel for the data.
{"compound": "COC(=O)c1ccc(-c2nc3cnccn3c2Nc2ccc(OC)c(OC)c2)cc1 [P22491]", "target-or-test-system": "PLpro of SARS-CoV-2 (Severe acute respiratory syndrome coronavirus 2, UniProt P0DTD1)", "inhibition at 50 µM / %": 22.4}
{"compound": "O=C(O)c1cccc(Nc2c(-c3cccc(Br)c3)nc3cnccn23)c1 [P19467]", "target-or-test-system": "PLpro of SARS-CoV-2 (Severe acute respiratory syndrome coronavirus 2, UniProt P0DTD1)", "inhibition at 50 µM / %": 27.3}
{"compound": "O=C(c1ccc(Nc2c(-c3ccccc3)nc3cnccn23)cc1)N1CCOCC1 [P22474]", "target-or-test-system": "PLpro of SARS-CoV-2 (Severe acute respiratory syndrome coronavirus 2, UniProt P0DTD1)", "inhibition at 50 µM / %": 35.3}
{"compound": "COc1cc(-c2nc3cnccn3c2Nc2cccc(C(=O)O)c2)ccc1O [P19506]", "target-or-test-system": "PLpro of SARS-CoV-2 (Severe acute respiratory syndrome coronavirus 2, UniProt P0DTD1)", "inhibition at 50 µM / %": 34}

We next turn to a different compound, shown below.
Tell me its inhibition at 50 µM on PLpro of SARS-CoV-2 (Severe acute respiratory syndrome coronavirus 2, UniProt P0DTD1): CCOC(=O)c1ccc(Nc2c(-c3ccc(Cl)cc3)nc3cnccn23)cc1 [P22492]
29.5

###

biological target: PLpro of SARS-CoV-2 (Severe acute respiratory syndrome coronavirus 2, UniProt P0DTD1); assay: Enzyme activity test in vitro: inhibition of PLpro at fixed concentration 50 μM (RLRGG-AMC substrate); assay type: biochemical; conditions: read-out: Inhibition rate at 50 μM (%)
parameter-measured: inhibition at 50 µM (%)
The reply should be a number in %, with the unit left off.

These recorded examples may help you get a feel for the data.
{"smiles": "CCOC(=O)c1ccc(Nc2c(-c3ccccc3)nc3cnccn23)cc1", "quantity-unit": "%", "inhibition at 50 µM": 29.4}
{"smiles": "COc1ccc(-c2nc3cnccn3c2Nc2cccc(C(=O)NCc3ccco3)c2)cc1", "quantity-unit": "%", "inhibition at 50 µM": 35.4}
{"smiles": "CC(C)NC(=O)c1ccc(Nc2c(-c3ccc(Cl)cc3)nc3cnccn23)cc1", "quantity-unit": "%", "inhibition at 50 µM": 37.1}
{"smiles": "CSc1ccc(-c2nc3cnccn3c2Nc2cccc(C(N)=O)c2)cc1", "quantity-unit": "%", "inhibition at 50 µM": 39.1}
{"smiles": "Fc1ccc(-c2nc3cnccn3c2Nc2ccc3c(c2)OCO3)cc1", "quantity-unit": "%", "inhibition at 50 µM": 36.3}

Tell me its inhibition at 50 µM on PLpro of SARS-CoV-2 (Severe acute respiratory syndrome coronavirus 2, UniProt P0DTD1): `CCc1cccc(C)c1Nc1c(-c2ccc(C(=O)NC)cc2)nc2cnccn12`
28.7

Tell me its inhibition at 50 µM on PLpro of SARS-CoV-2 (Severe acute respiratory syndrome coronavirus 2, UniProt P0DTD1): `COC(=O)c1ccc(-c2nc3cnccn3c2Nc2cccc(C(=O)OC)c2)cc1`
25.4

Tell me its inhibition at 50 µM on PLpro of SARS-CoV-2 (Severe acute respiratory syndrome coronavirus 2, UniProt P0DTD1): `COC(=O)c1ccc(-c2nc3cnccn3c2Nc2cccc(C(F)(F)F)c2)cc1`
27.6

Tell me its inhibition at 50 µM on PLpro of SARS-CoV-2 (Severe acute respiratory syndrome coronavirus 2, UniProt P0DTD1): `CCOC(=O)c1ccc(Nc2c(-c3ccc(C(=O)OC)cc3)nc3cnccn23)cc1`
22

###

target: PLpro of SARS-CoV-2 (Severe acute respiratory syndrome coronavirus 2, UniProt P0DTD1); assay: Enzyme activity test in vitro: inhibition of PLpro at fixed concentration 50 μM (RLRGG-AMC substrate); type: biochemical; details: read-out: Inhibition rate at 50 μM (%)
parameter-measured: inhibition at 50 µM (%)
The reply should be a number in %, with the unit left off.

{"compound": "COC(=O)c1ccc(-c2nc3cnccn3c2Nc2ccc3c(c2)OCCO3)cc1 [P24862]", "target-or-test-system": "PLpro of SARS-CoV-2 (Severe acute respiratory syndrome coronavirus 2, UniProt P0DTD1)", "parameter-measured": "inhibition at 50 µM", "quantity-unit": "%", "result": 30.1}

Supply measured inhibition at 50 µM of CCNC(=O)c1ccc(Nc2c(-c3ccc(Cl)cc3)nc3cnccn23)cc1 [P22402] in your reply.
31.3

Supply measured inhibition at 50 µM of Cc1ccc(-c2nc3cnccn3c2Nc2ccc(C(=O)N3CCCCC3)cc2)cc1 [P22464] in your reply.
29.6

Supply measured inhibition at 50 µM of O=C(NCCN1CCOCC1)c1ccc(Nc2c(-c3ccccc3)nc3cnccn23)cc1 [P22472] in your reply.
33

Supply measured inhibition at 50 µM of CSc1ccc(-c2nc3cnccn3c2Nc2cccc(C(=O)NCC3CCCO3)c2)cc1 (centres unmarked) [P22418] in your reply.
34.5

###

target: PLpro of SARS-CoV-2 (Severe acute respiratory syndrome coronavirus 2, UniProt P0DTD1); assay: Enzyme activity test in vitro: inhibition of PLpro at fixed concentration 50 μM (RLRGG-AMC substrate); type: biochemical; details: read-out: Inhibition rate at 50 μM (%)
Recorded inhibition at 50 µM for the following molecules
The reply should be a number in %, with the unit left off.

{"molecule": "CN(C)CCNC(=O)c1cccc(Nc2c(-c3ccc(Cl)cc3)nc3cnccn23)c1", "inhibition at 50 µM / %": 38.6}
{"molecule": "CSc1ccc(-c2nc3cnccn3c2Nc2ccc(C(=O)N3CCOCC3)cc2)cc1", "inhibition at 50 µM / %": 40.7}
{"molecule": "CN(C)CCNC(=O)c1ccc(Nc2c(-c3ccccc3)nc3cnccn23)cc1", "inhibition at 50 µM / %": 30.5}
{"molecule": "NC(=O)c1cccc(Nc2c(-c3ccc(Cl)cc3)nc3cnccn23)c1", "inhibition at 50 µM / %": 35.4}
{"molecule": "COc1ccc(-c2nc3cnccn3c2Nc2ccc(C(=O)NCC3CCCO3)cc2)cc1 (stereo not shown)", "inhibition at 50 µM / %": 36.8}
{"molecule": "COc1ccc(-c2nc3cnccn3c2Nc2cccc(C(=O)O)c2)cc1", "inhibition at 50 µM / %": 40.1}
{"molecule": "COc1ccc(-c2nc3cnccn3c2Nc2ccc(C(=O)NCCN(C)C)cc2)cc1", "inhibition at 50 µM / %": 41.2}
{"molecule": "CNC(=O)c1ccc(Nc2c(-c3ccc(C)cc3)nc3cnccn23)cc1", "inhibition at 50 µM / %": 34.1}

Tell me its inhibition at 50 µM on PLpro of SARS-CoV-2 (Severe acute respiratory syndrome coronavirus 2, UniProt P0DTD1): `O=C(O)c1ccc(Nc2c(-c3cccc(Cl)c3)nc3cnccn23)cc1`
13.2

Tell me its inhibition at 50 µM on PLpro of SARS-CoV-2 (Severe acute respiratory syndrome coronavirus 2, UniProt P0DTD1): `COC(=O)c1cccc(Nc2c(-c3ccc(O)c(OC)c3)nc3cnccn23)c1`
44.7

Tell me its inhibition at 50 µM on PLpro of SARS-CoV-2 (Severe acute respiratory syndrome coronavirus 2, UniProt P0DTD1): `CSc1ccc(-c2nc3cnccn3c2Nc2ccc(C(=O)NCc3ccco3)cc2)cc1`
29.6

Tell me its inhibition at 50 µM on PLpro of SARS-CoV-2 (Severe acute respiratory syndrome coronavirus 2, UniProt P0DTD1): `CCOC(=O)c1ccc(Nc2c(-c3cccc(Br)c3)nc3cnccn23)cc1`
24.2

Tell me its inhibition at 50 µM on PLpro of SARS-CoV-2 (Severe acute respiratory syndrome coronavirus 2, UniProt P0DTD1): `COC(=O)c1cccc(Nc2c(-c3cccc(O)c3)nc3cnccn23)c1`
13.2

Tell me its inhibition at 50 µM on PLpro of SARS-CoV-2 (Severe acute respiratory syndrome coronavirus 2, UniProt P0DTD1): `O=C(O)c1cccc(Nc2c(-c3ccc(Cl)cc3)nc3cnccn23)c1`
32.8

Tell me its inhibition at 50 µM on PLpro of SARS-CoV-2 (Severe acute respiratory syndrome coronavirus 2, UniProt P0DTD1): `CCc1cccc(C)c1Nc1c(-c2ccc(NC(C)=O)cc2)nc2cnccn12`
21.9

Tell me its inhibition at 50 µM on PLpro of SARS-CoV-2 (Severe acute respiratory syndrome coronavirus 2, UniProt P0DTD1): `COc1ccc(-c2nc3cnccn3c2Nc2ccc(C(C)C)cc2)cc1OC`
37.5

Tell me its inhibition at 50 µM on PLpro of SARS-CoV-2 (Severe acute respiratory syndrome coronavirus 2, UniProt P0DTD1): `CNC(=O)c1ccc(Nc2c(-c3ccc(OC)cc3)nc3cnccn23)cc1`
28.1

Tell me its inhibition at 50 µM on PLpro of SARS-CoV-2 (Severe acute respiratory syndrome coronavirus 2, UniProt P0DTD1): `COc1ccc(-c2nc3cnccn3c2Nc2ccc(C(=O)O)cc2)cc1`
36

Tell me its inhibition at 50 µM on PLpro of SARS-CoV-2 (Severe acute respiratory syndrome coronavirus 2, UniProt P0DTD1): `Cc1ccc(-c2nc3cnccn3c2Nc2ccc(C(=O)NC3CCCCC3)cc2)cc1`
41.1
